target: Torsin-1A-interacting protein 1 (Homo sapiens); test: LAP1 binders from COS7 cell lysate, primary screen, small-molecule microarray, 635/667 nm fluorescence (AID 1116); details: COS7-hLAP1 lysate binding, 635 nm fluorescence, higher = more signal
I would appreciate it if you labelled entries 1.0 when composite z-score is 0.7 or higher, otherwise 0.0.

// known answers, use as guide
molecule	assigned label
CC(C)N1C(=O)[C@@]2(Cc3ccccc31)c1ccccc1C(=O)N(Cc1ccccc1)[C@H]2c1ccc(CO)cc1	0.0
COCCOC(=O)N1C(=O)[C@@]2(c3ccccc31)[C@H](C(=O)Nc1nc3ccccc3s1)[C@H]1C(=O)O[C@H](c3ccccc3)[C@H](c3ccccc3)N1[C@@H]2c1ccccc1OCCO	0.0
COc1ccc([Si](C)(C)[C@@H]2[C@@H](CC(=O)N(CCO)Cc3ccccc3)O[C@]3(C(=O)N(Cc4cccc(I)c4)c4ccccc43)[C@H]2C)cc1	0.0
O=C1NC(=O)C2C1C=CC(C(O)C1CCCCC1)N2Nc1ccccn1 (stereo unspecified)	0.0
COC(=O)[C@H]1N=C(c2ccc(OCCCO)cc2)O[C@H]1c1ccccc1N=[N+]=[N-]	0.0
C=C(C(=O)CC[C@H](OC(=O)c1ccccc1-c1ccccc1C(=O)O)c1ccc(OCCO)cc1)C(C)C	1.0

Query block: Check the entry CC[C@@H](O[Si](C#C[Si](C(C)C)(C(C)C)C(C)C)(C(C)C)C(C)C)c1cn([C@H](C)c2ccccc2)nn1 : does composite z-score equal or exceed 0.7?
Result block: 0.0

Query block: Check the entry COc1ccc([Si](C)(C)[C@H]2[C@H](CC(=O)N3CCC[C@H]3CO)O[C@@]3(C(=O)N(Cc4cccc(N5CCCCC5=O)c4)c4ccccc43)[C@@H]2C)cc1 : does composite z-score equal or exceed 0.7?
Result block: 1.0

Query block: Check the entry CCOC(=O)C=C1C[C@@H](c2cccc([N+](=O)[O-])c2)O[C@@H](c2cccc([N+](=O)[O-])c2)O1 : does composite z-score equal or exceed 0.7?
Result block: 1.0

Query block: Check the entry COCCOC(=O)N1C(=O)[C@@]2(c3cc(C#CCC(C(=O)OC)C(=O)OC)ccc31)[C@H](c1ccc(O)cc1)N1[C@H](c3ccccc3)[C@H](c3ccccc3)OC(=O)[C@H]1[C@@H]2C(=O)N1CCc2cc(OC)c(OC)cc2C1 : does composite z-score equal or exceed 0.7?
Result block: 1.0

Query block: Check the entry C=CCOC(=O)[C@H]1[C@@H]2C(=O)O[C@@H](c3ccccc3)[C@@H](c3ccccc3)N2[C@@H](c2ccc(OCCOC(=O)[C@H]3C[C@H]4C(=O)NCC(=O)N4[C@H]3c3ccc(O)cc3)cc2)[C@]12C(=O)Nc1ccccc12 : does composite z-score equal or exceed 0.7?
Result block: 1.0
